Reference for the values: ChEMBL document CHEMBL3045582

System: Brassica rapa subsp. oleifera
Experiment: Inhibition of Brassica rapa subsp. oleifera root growth at 10 mg/L
Type: functional
readout.kind: inhibition at 10 µg/mL (%)
Report the figure in % without appending any unit label.

Prompt: I'd like to know its inhibition at 10 µg/mL. The molecule in question is Cc1ccc2c(c1)C(=O)C(=O)N2
Response: 13

Prompt: Report inhibition at 10 µg/mL for O=C1Nc2c(Cl)cccc2C1=O please.
Response: 51

Prompt: Consider the molecule Cc1ccc2c(c1)C(=O)C(=O)N2C and give its measured inhibition at 10 µg/mL.
Response: 14

Prompt: Name the recorded inhibition at 10 µg/mL for Cc1nc(C)c(C(=O)N/N=C2\C(=O)Nc3ccccc32)s1 .
Response: 0

Prompt: Recorded inhibition at 10 µg/mL of O=C(N/N=C1\C(=O)N(Cc2cccc(F)c2)c2ccccc21)c1ccccc1 , please.
Response: 0

Prompt: I'd like to know its inhibition at 10 µg/mL. The molecule in question is Cc1cc(C)n(CC(=O)N/N=C2\C(=O)Nc3ccccc32)n1
Response: 0

Prompt: # query: inhibition at 10 µg/mL of entry O=C1Nc2c(Br)cccc2/C1=N/NC(=O)c1ccccc1F
Response: 14

Prompt: Look up inhibition at 10 µg/mL: CN1C(=O)C(=O)c2cc(Cl)ccc21
Response: 20

* * *

System: Brassica rapa subsp. oleifera
Experiment: Inhibition of Brassica rapa subsp. oleifera root growth at 10 mg/L
Type: functional
Provide the recorded inhibition at 10 µg/mL for the entries that follow.
Numeric only. Scale: %

Prompt: Give the measured inhibition at 10 µg/mL of O=C1Nc2ccc(F)cc2C1=O .
Response: 52

Prompt: Param item = O=C1Nc2ccc(Cl)cc2C1=O ; retrieve measured inhibition at 10 µg/mL.
Response: 28

Prompt: # lookup: inhibition at 10 µg/mL of Cc1ccnc(NC(=O)NS(=O)(=O)c2ccccc2C(=O)O)n1
Response: 64

Prompt: Bench note: what inhibition at 10 µg/mL did CN1C(=O)C(=O)c2ccccc21 show?
Response: 7

Prompt: Recorded inhibition at 10 µg/mL of N#Cc1ccc(CN2C(=O)/C(=N\NC(=O)c3ccccc3)c3ccccc32)cc1 , please.
Response: 2

Prompt: Given the entry O=C1Nc2ccc(I)cc2C1=O , report its measured inhibition at 10 µg/mL.
Response: 31

Prompt: I am curious: what inhibition at 10 µg/mL value has been reported for O=C(N/N=C1\C(=O)N(Cc2ccc(Cl)cc2Cl)c2ccccc21)c1ccccc1 ?
Response: 0

Prompt: # query: inhibition at 10 µg/mL of entry O=C1Nc2ccc([N+](=O)[O-])cc2C1=O
Response: 7

Prompt: Which measured inhibition at 10 µg/mL value corresponds to CN1C(=O)C(=O)c2cccc(Cl)c21 ?
Response: 31

Prompt: Any idea what inhibition at 10 µg/mL was measured for O=C1Nc2ccccc2C1=O ?
Response: 24

Prompt: I have this compound here, Cc1ccccc1CN1C(=O)/C(=N\NC(=O)c2ccccc2)c2ccccc21 , and I need its recorded inhibition at 10 µg/mL.
Response: 0

Prompt: # lookup: inhibition at 10 µg/mL of O=C1Nc2c(Br)cccc2/C1=N/NC(=O)c1cccc(F)c1
Response: 0

Prompt: Need inhibition at 10 µg/mL, item CN1C(=O)C(=O)c2cc(F)ccc21
Response: 19

Prompt: Fill blank: measured inhibition at 10 µg/mL of the compound O=C(N/N=C1\C(=O)N(Cc2ccc(F)cc2)c2ccccc21)c1ccccc1 is ____.
Response: 0

Prompt: inhibition at 10 µg/mL for O=C1Nc2ccccc2/C1=N/Nc1ncccc1Cl ?
Response: 0

Prompt: State the recorded inhibition at 10 µg/mL for this entry: O=C1Nc2ccc(S(=O)(=O)O)cc2C1=O
Response: 4

Prompt: What does the record list as inhibition at 10 µg/mL for CN1C(=O)C(=O)c2cc(I)ccc21 ?
Response: 13

Prompt: GET /values?readout=inhibition at 10 µg/mL&item= O=C1Nc2c(I)cccc2/C1=N/NC(=O)c1ccccc1O
Response: 0

Prompt: I have this compound here, O=C1Nc2ccc(C(F)(F)F)cc2C1=O , and I need its recorded inhibition at 10 µg/mL.
Response: 27

Prompt: Dear colleague, I am looking for the recorded inhibition at 10 µg/mL of the following compound: O=C1Nc2ccccc2/C1=N/O
Response: 0

Prompt: For the compound CC(C)(C)c1ccc(CN2C(=O)/C(=N\NC(=O)c3ccccc3)c3ccccc32)cc1 , what inhibition at 10 µg/mL is on record?
Response: 0

Prompt: What measured inhibition at 10 µg/mL goes with CN1C(=O)C(=O)c2cc([N+](=O)[O-])ccc21 ?
Response: 2

Prompt: State the recorded inhibition at 10 µg/mL for this entry: COc1ccc2c(c1)C(=O)C(=O)N2
Response: 20

Prompt: Using the record for O=C1Nc2c(I)cccc2/C1=N/NC(=O)c1cccc(F)c1 , report its inhibition at 10 µg/mL.
Response: 51

Prompt: # lookup: inhibition at 10 µg/mL of Cc1cc(Cl)cc2c1NC(=O)C2=O
Response: 10
